tested on: HCT116 human colorectal carcinoma cells; experiment: CellTiter-Glo Luminescent Cell Viability Assay; type: cell-based; settings: HCT-116, 72 h, 3 days
measurement-type: EC50

>>> experimental_value("CC(C)(CO)n1ncc(S(=O)(=O)Nc2cccc3c(C#N)c[nH]c23)c1Cl")
"250 to 1000 nM"
>>> experimental_value("N#Cc1c[nH]c2c(NS(=O)(=O)c3cnn([C@H]4C[C@H](O)C4)c3)ccc(Cl)c12")
"250 to 1000 nM"
>>> experimental_value("NCCn1cc(S(=O)(=O)Nc2cccc3c(Cl)c[nH]c23)cn1")
"> 1000 nM"
>>> experimental_value("CNC(=O)Cn1cc(S(=O)(=O)Nc2ccc(C)c3c(C#N)c[nH]c23)cn1")
"> 1000 nM"

# ---- query compound ----
## Task Give its EC50 value. Item: "CCn1ncc(S(=O)(=O)Nc2ccc(C)c3c(C#N)c[nH]c23)c1N"
## Result < 250 nM

* * *

test system: HCT116 human colorectal carcinoma cells; test: CellTiter-Glo Luminescent Cell Viability Assay; format: cell-based; conditions: HCT-116, 72 h, 3 days
measurement-type: EC50

Sample answers from the record:
>>> experimental_value("Cc1ccc(NS(=O)(=O)c2cnn(C)c2)c2[nH]cc(Cl)c12")
"< 250 nM"
>>> experimental_value("N#CCCn1cc(S(=O)(=O)Nc2cccc3c(Cl)c[nH]c23)cn1")
"< 250 nM"

## Task Item under review: "C[C@H](CF)n1cc(S(=O)(=O)Nc2ccc(F)c3c(C#N)c[nH]c23)cn1" . Reported EC50?
## Result 250 to 1000 nM

## Task What does the record list as EC50 for "CC(C)(CO)n1cc(S(=O)(=O)Nc2cccc3c(C#N)c[nH]c23)c(Cl)n1" ?
## Result > 1000 nM

## Task Sample "N#Cc1c[nH]c2c(NS(=O)(=O)c3cnn(CC(F)F)c3)ccc(F)c12" — what was its EC50?
## Result 250 to 1000 nM

## Task Quick one: EC50 of "Cc1ccc(NS(=O)(=O)c2cnn([C@H]3CN(C(=O)OC(C)(C)C)C[C@H]3F)c2)c2[nH]cc(C#N)c12" ?
## Result > 1000 nM

## Task Please give the measured EC50 for this molecule: "N#Cc1c[nH]c2c(NS(=O)(=O)c3cnn(CC(F)F)c3N)ccc(F)c12"
## Result 250 to 1000 nM

## Task Need EC50, item Cc1ccc(NS(=O)(=O)c2cnn(C(F)CO)c2)c2[nH]cc(C#N)c12 (stereo not shown)
## Result < 250 nM

## Task Give the measured EC50 of "Cc1ccc(NS(=O)(=O)c2cnn(C)c2N)c2[nH]nc(C#N)c12" .
## Result < 250 nM

## Task Reported EC50 for "CS(=O)(=O)Cn1cc(S(=O)(=O)Nc2ccc(Cl)c3c(C#N)c[nH]c23)cn1" : what is it?
## Result 250 to 1000 nM

## Task Fill in the blank: the reported EC50 of "CC(C)(CO)n1cc(S(=O)(=O)Nc2ccc(F)c3c(C#N)c[nH]c23)c(Cl)n1" is ____.
## Result > 1000 nM

## Task Given the molecule "O=S(=O)(Nc1cccc2c(Cl)c[nH]c12)c1cnn(CF)c1" , what is its reported EC50?
## Result 250 to 1000 nM

## Task Any idea what EC50 was measured for "O=S(=O)(Nc1cccc2c(Cl)c[nH]c12)c1cnn(C2CCNCC2)c1" ?
## Result > 1000 nM

* * *

test system: HCT116 human colorectal carcinoma cells; experiment: CellTiter-Glo Luminescent Cell Viability Assay; format: cell-based; conditions: HCT-116, 72 h, 3 days
Here, each record is paired with measured EC50 data.

>>> experimental_value("N#Cc1c[nH]c2c(NS(=O)(=O)c3cnn(CF)c3N)cccc12")
"> 1000 nM"
>>> experimental_value("O=S(=O)(Nc1cccc2c(Cl)c[nH]c12)c1cnn(CCF)c1")
"250 to 1000 nM"
>>> experimental_value("Cc1ccc(NS(=O)(=O)c2cnn(CCC(C)O)c2)c2[nH]cc(C#N)c12 (stereo not shown)")
"250 to 1000 nM"

Please examine the following record next.
## Task // returns reported EC50 for input "Cc1ccc(NS(=O)(=O)c2cnn(CCF)c2)c2[nH]cc(C#N)c12"
## Result < 250 nM
